molecular target: Glutamate NMDA receptor; test: Binding affinity was tested on Phencyclidine binding assay.; type: protein-complex assay
The following compounds are listed with their measured pKi values.
Give only the number. pKi is defined as minus log10 of concentration in molar units.

Guide cases for pKi, answers given:
compound	pKi
CC1(C)CCCN(CCCC2CCCc3cscc32)C1 (configuration not stated)	8.03
COc1cccc2c1CCCC2CCCN1CCCCC1 (configuration not stated)	5.49
CCCN(CCC)CCCCC1=CCCc2ccccc21	5.59
COc1cccc2c1CCCC2CCCN1CCCC(C)(C)C1 (configuration not stated)	7.47
CCCN(CCC)CCCC1CCCc2ccccc21 (configuration not stated)	4.32
c1ccc2c(c1)CCCC2CCCCN1CCCCC1 (configuration not stated)	5.25

Input: Please give the measured pKi for this compound: CCCN(CCC)CCCCC1CCCc2ccccc21 (configuration not stated)
Output: 5.00

----------
target: Sigma-1 receptor (Rattus norvegicus); assay: Binding affinity was tested on Sigma-1 receptor using radioligand [3H](+)-pentazocine binding assay.
Label satisfied when Ki is strictly below 4 nM; otherwise label not satisfied.

Below are worked cases with known answers.
molecule	testedTarget	cat
CCCN(CCC)CCCC1CCCc2ccccc21 (centres undefined)	Sigma-1 receptor (Rattus norvegicus)	not satisfied
c1ccc(CC2CCN(CCCCC3CCCc4ccccc43)CC2)cc1 (centres undefined)	Sigma-1 receptor (Rattus norvegicus)	not satisfied
c1ccc2c(c1)CCN(CCCCC1CCCc3ccccc31)C2 (centres undefined)	Sigma-1 receptor (Rattus norvegicus)	satisfied
COc1ccc2c(c1)C(CCCN1CCCCC1)CCC2 (centres undefined)	Sigma-1 receptor (Rattus norvegicus)	not satisfied
CCCN(CCC)CCCCC1CCCc2ccccc21 (centres undefined)	Sigma-1 receptor (Rattus norvegicus)	not satisfied

Input: Ki strictly < 4 nM for this molecule? c1ccc2c(c1)CCCC2CCCCN1CCCCC1 (centres undefined)
Output: not satisfied

Input: Decide: Ki of CC1(C)CCCN(CCCCC2CCCc3ccccc32)C1 (centres undefined) strictly below 4 nM?
Output: satisfied

----------
assay: Binding affinity of compound was tested on Phencyclidine binding assay.
observable: Ki (nM)
Give your result in nM as a bare value.

Input: What value of Ki has been recorded for this entry: C=CCN1CCC2c3cc(O)ccc3CC1C2C (stereo unspecified)
Output: 370

----------
molecular target: D(2) dopamine receptor (Rattus norvegicus); assay: Binding affinity was tested on Dopamine receptor D2 using radioligand [3H]spiroperidol; design: concentration or dose not given beside the values
Measured Displacement of individual entries
Be sure to follow the number with its unit.

molecule	Displacement
C1=C(CCCCN2CCCCC2)c2ccccc2CC1	0%
c1ccc2c(c1)CCCC2CCCCN1CCCCC1 (stereo not given)	27%
CCCN(CCC)CCCCC1=CCCc2ccccc21	40%
CCCN(CCC)CCCCC1CCCc2ccccc21 (stereo not given)	31%

Shifting focus to the molecule that follows.
Input: What value of measured Displacement is listed for CCCN(CCC)CCCC1CCCc2ccccc21 (stereo not given) ?
Output: 0%
